experimentalSystem: T1, CRBN, Q96SW2;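 further: pooled lentiviral library of zinc finger degron-EGFP fusions in mCherry-positive Jurkat cells, FACS-sorted after compound exposure, with degron abundance counted by next-generation sequencing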
T1 chain: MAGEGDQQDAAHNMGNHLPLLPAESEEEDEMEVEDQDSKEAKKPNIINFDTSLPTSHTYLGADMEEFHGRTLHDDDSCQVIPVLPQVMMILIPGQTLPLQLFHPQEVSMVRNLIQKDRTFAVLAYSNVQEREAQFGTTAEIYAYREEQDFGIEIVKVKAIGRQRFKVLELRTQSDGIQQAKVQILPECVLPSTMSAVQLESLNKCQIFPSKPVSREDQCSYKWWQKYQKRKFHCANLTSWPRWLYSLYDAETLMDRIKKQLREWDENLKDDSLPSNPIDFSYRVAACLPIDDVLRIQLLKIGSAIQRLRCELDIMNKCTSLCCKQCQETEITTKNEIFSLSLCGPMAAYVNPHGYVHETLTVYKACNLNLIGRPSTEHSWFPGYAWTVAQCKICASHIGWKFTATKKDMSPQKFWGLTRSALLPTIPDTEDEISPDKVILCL
method: log2 fold change of degron read counts, EGFP-low vs EGFP+ sorted cells (limma voom), compound-induced degradation; higher = more compound-induced degradation of the degron-EGFP fusion; degrons are variants of IKZF1/3 zinc finger 2; compound dose not given here
conditionInfo: Jurkat; 18 h; compound: compound 33 (diphenyl IMiD analogue)
The full ranking holds about 8,300 sequences; the median of “log2 fold change of degron read counts, EGFP-low vs EGFP+ sorted cells (limma voom), compound-induced degradation” is about -1.1, and the highest 2% start at about 3.2. The entries come from a sample that favours the highest values as a whole.
parameter: log2 fold change of degron read counts
Respond using a number only.

Examples from the recorded data:
FDCEVCGAAFTQKGNLLRHIKL [46F_47D_49E_50V_52G_53A_54A_55F_67L_, Q9UKT9] ... 0.426
FGCDICGANFTQKGNLLRHIKL [46F_47G_49D_50I_52G_53A_54N_55F_67L_, Q9UKT9] ... 0.0264
FECPICGHAFTQKGNLLRHIKL [46F_47E_49P_50I_52G_53H_54A_55F_67L_, Q9UKT9] ... -1.62

Using the record for FECNQCGRSFTQKGNLLRHIKL [46F_47E_49N_50Q_52G_53R_54S_55F_67L_, Q9UKT9] , report its log2 fold change of degron read counts. -3.77
